Just for reference, patent US9309242B2 is where these values come from.

Target: Ba/F3-FGFR1-transfected cells (Homo sapiens)
Construct: BAF3-FGFR1 (MIN IL3) pIC50; other: minus IL3
Sequence (P11362 whole entry, change not shown): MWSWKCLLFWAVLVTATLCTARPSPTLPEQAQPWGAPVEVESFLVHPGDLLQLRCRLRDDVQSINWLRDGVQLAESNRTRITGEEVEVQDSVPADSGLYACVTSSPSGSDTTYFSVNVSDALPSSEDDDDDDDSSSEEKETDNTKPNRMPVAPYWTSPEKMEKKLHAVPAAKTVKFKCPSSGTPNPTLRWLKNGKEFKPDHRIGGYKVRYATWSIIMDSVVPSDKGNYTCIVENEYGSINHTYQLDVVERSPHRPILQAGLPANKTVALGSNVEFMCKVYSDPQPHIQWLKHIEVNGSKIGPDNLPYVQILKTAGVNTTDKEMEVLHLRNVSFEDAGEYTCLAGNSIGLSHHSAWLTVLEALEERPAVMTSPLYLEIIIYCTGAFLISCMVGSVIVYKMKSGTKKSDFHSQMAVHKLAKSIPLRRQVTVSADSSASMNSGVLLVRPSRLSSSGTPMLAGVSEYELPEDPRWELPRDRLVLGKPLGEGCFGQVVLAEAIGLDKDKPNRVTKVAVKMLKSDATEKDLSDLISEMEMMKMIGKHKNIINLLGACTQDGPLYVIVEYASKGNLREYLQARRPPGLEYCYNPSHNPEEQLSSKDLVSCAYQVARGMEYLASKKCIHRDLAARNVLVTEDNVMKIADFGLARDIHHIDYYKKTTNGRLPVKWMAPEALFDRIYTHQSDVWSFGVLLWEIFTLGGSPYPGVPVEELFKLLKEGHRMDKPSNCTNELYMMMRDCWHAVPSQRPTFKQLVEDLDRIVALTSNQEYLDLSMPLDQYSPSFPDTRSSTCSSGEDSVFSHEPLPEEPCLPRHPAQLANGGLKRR
Assay: Ba/F3-FGFR1 (minus IL3) cellular proliferation assay, Alamar Blue
Assay type: cell-based
Where a name gives a salt, the structure may show the parent alone.
Exam item: assign satisfied to entries whose BAF3-FGFR1 (MIN IL3) pIC50 is below 7 and not satisfied to entries at or above 7. Note that a value of exactly 7 receives not satisfied.

{"COMPOUND": "COc1cc(OC)cc(N(Cc2nc[nH]n2)c2ccc3ncc(-c4cnn(C)c4)nc3n2)c1", "MEASURED_ON": "Ba/F3-FGFR1-transfected cells (Homo sapiens)", "ASSIGNED_CLASS": "not satisfied"}
{"COMPOUND": "COc1cc(OC)cc(N(Cc2ncc[nH]2)c2ccc3ncc(-c4cnn(C)c4)nc3n2)c1 [24-hydrochloric acid salt]", "MEASURED_ON": "Ba/F3-FGFR1-transfected cells (Homo sapiens)", "ASSIGNED_CLASS": "not satisfied"}
{"COMPOUND": "COc1cc(OC)cc(N(Cc2ncc[nH]2)c2ccc3ncc(-c4cccnc4)nc3n2)c1", "MEASURED_ON": "Ba/F3-FGFR1-transfected cells (Homo sapiens)", "ASSIGNED_CLASS": "not satisfied"}
{"COMPOUND": "COc1cc(OC)c(F)c(N(Cc2cn[nH]c2)c2ccc3ncc(-c4cnn(C)c4)nc3n2)c1", "MEASURED_ON": "Ba/F3-FGFR1-transfected cells (Homo sapiens)", "ASSIGNED_CLASS": "not satisfied"}
{"COMPOUND": "COc1ccc(F)c(N(Cc2ncc[nH]2)c2ccc3ncc(-c4cnn(C)c4)nc3n2)c1Cl", "MEASURED_ON": "Ba/F3-FGFR1-transfected cells (Homo sapiens)", "ASSIGNED_CLASS": "not satisfied"}
{"COMPOUND": "COc1cc(/N=c2\\ccc3ncc(-c4cnn(C)c4)nc3n2CC2COC2)c(F)c(OC)c1", "MEASURED_ON": "Ba/F3-FGFR1-transfected cells (Homo sapiens)", "ASSIGNED_CLASS": "satisfied"}
{"COMPOUND": "COc1cc(OC)cc(N(Cc2nnc(N)o2)c2ccc3ncc(-c4cnn(C)c4)nc3n2)c1", "MEASURED_ON": "Ba/F3-FGFR1-transfected cells (Homo sapiens)", "ASSIGNED_CLASS": "satisfied"}
{"COMPOUND": "COc1cc(/N=c2\\ccc3ncc(-c4cnn(C)c4)nc3n2CCNC(C)=O)c(F)c(OC)c1", "MEASURED_ON": "Ba/F3-FGFR1-transfected cells (Homo sapiens)", "ASSIGNED_CLASS": "not satisfied"}
